Notes on GI50 obtained with NCI-H23 lung.

[
  {
    "COMPOUND": "O=C(CI)OCC(COC(=O)CI)OC(=O)CI",
    "GI50": "5.36 µM"
  },
  {
    "COMPOUND": "CCN(Cc1cccnc1)c1ccc(CO)c(Cl)c1",
    "GI50": "45 µM"
  },
  {
    "COMPOUND": "CC(=O)O[C@H]1CC[C@]2(C)[C@H]3CC=C4[C@@H]5CC(C)(C)CC[C@]5(C(=O)NCCNCCNCCN)CC[C@@]4(C)[C@]3(C)CC[C@H]2C1(C)C",
    "GI50": "1.8 µM"
  },
  {
    "COMPOUND": "COc1cc(C(=O)N2CCN(c3ccccn3)CC2)c(N)cc1OCc1ccccc1",
    "GI50": "> 100 µM"
  },
  {
    "COMPOUND": "COc1ccc([As]=[As]c2ccc(OC)c(NCS(=O)(=O)O)c2)cc1NCS(=O)(=O)O (centres undefined)",
    "GI50": "2.57 µM"
  },
  {
    "COMPOUND": "COc1cc2cc(c1Cl)N(C)C(=O)C[C@H](OC(=O)[C@H](C)N(C)C(=O)CCS)C[C@]1(C)O[C@H]1[C@H](C)[C@@H]1C[C@@](O)(NC(=O)O1)[C@H](OC)/C=C/C=C(\\C)C2",
    "GI50": "0.00804 µM"
  },
  {
    "COMPOUND": "COc1cc(/C=C2\\CN(S(=O)(=O)c3ccc(C)cc3)C/C(=C\\c3cc(CN4CCOCC4)c(O)c(OC)c3)C2=O)cc(CN2CCOCC2)c1O",
    "GI50": "3.31 µM"
  },
  {
    "COMPOUND": "Cc1nc2ccc(Nc3nc(Cl)nc(Nc4ccc(F)cc4)n3)cc2n1Cc1ccccc1",
    "GI50": "7.16 µM"
  },
  {
    "COMPOUND": "CCO.CCO.Oc1ccc(Nc2ncns2)cc1.Oc1ccc(Nc2ncns2)cc1.[Ti]",
    "GI50": "27.6 µM"
  }
]

====

test system: SW-620 colon; assay: NCI tumour cell line growth inhibition, 48 h
Known TGI of a selection of molecules

[
  {
    "MOLECULE": "S=c1ncc2n[nH]nc2[nH]1",
    "TGI": "> 100 µM"
  },
  {
    "MOLECULE": "O=CC12c3ccccc3C(c3ccccc31)C1C(=O)NC(=O)C12 (stereo not given)",
    "TGI": "> 100 µM"
  },
  {
    "MOLECULE": "COc1ccc2nc3cc(Cl)ccc3c(Nc3ccc(O)c(CN4CCN(C)CC4)c3)c2c1",
    "TGI": "5.1 µM"
  },
  {
    "MOLECULE": "CCOc1ccccc1N1CSc2nnc(-c3ccccc3)n2C1",
    "TGI": "> 100 µM"
  },
  {
    "MOLECULE": "NC(N)=N/N=C/c1oc(-c2ccc(S(=O)(=O)O)o2)c(-c2ccc(S(=O)(=O)O)o2)c1[N+](=O)[O-]",
    "TGI": "> 100 µM"
  }
]

====

tested on: T-47D breast; experiment: NCI tumour cell line growth inhibition, 48 h

[
  {
    "COMPOUND": "COc1ccc(-n2c(N)c(C#N)c(C#N)c2-c2cccc([N+](=O)[O-])c2)cc1",
    "TGI": "> 100 µM"
  },
  {
    "COMPOUND": "[N-]=[N+]=NC1=C(C(=O)c2ccccc2)C(=O)c2cccc3cccc1c23",
    "TGI": "> 100 µM"
  },
  {
    "COMPOUND": "COc1ccc(N=NC(=O)NC(CC(C)C)C(=O)NC(Cc2ccccc2)C(=O)O)cc1 (stereo not given)",
    "TGI": "> 100 µM"
  },
  {
    "COMPOUND": "CS(=O)(=O)c1ccc(Oc2cc(F)cc(C#N)c2)c2c1[C@H](O)[C@H](F)[C@H]2F",
    "TGI": "> 100 µM"
  },
  {
    "COMPOUND": "CC(=O)N/N=C1/NN(C(C)=O)C2(S1)C(=O)Nc1ccc(C)cc12 (stereo not given)",
    "TGI": "70.9 µM"
  }
]

====

Each entry below carries its reported TGI.
system: UO-31 renal; assay: NCI tumour cell line growth inhibition, 48 h

[
  {
    "COMPOUND": "Cc1ccc(S(=O)(=O)n2cc(/C=C/C#N)c(/C=C/C#N)c2)cc1",
    "TGI": "> 100 µM"
  },
  {
    "COMPOUND": "COc1ccc(OC)c(C(=O)c2cccc(C(=O)c3cc(OC)ccc3OC)n2)c1",
    "TGI": "85.9 µM"
  },
  {
    "COMPOUND": "Cc1cc(C)c2ccc(N3CCNCC3)nc2n1",
    "TGI": "> 100 µM"
  },
  {
    "COMPOUND": "O=c1[nH]c2nc3ccccc3n2c(O)c1-c1ccccc1",
    "TGI": "> 100 µM"
  },
  {
    "COMPOUND": "N#CC12CC3=C(N=C1NC1=C(CCc4ccccc41)C2)c1ccccc1CC3 (configuration not stated)",
    "TGI": "35.1 µM"
  },
  {
    "COMPOUND": "Cc1cccc2c1CC1(Cc3ccccc3C1=O)C2=O (configuration not stated)",
    "TGI": "> 100 µM"
  },
  {
    "COMPOUND": "CCCCCCCCCc1c(Cl)nc(Cl)nc1Cl",
    "TGI": "32.2 µM"
  },
  {
    "COMPOUND": "O=C(CI)OCC(COC(=O)CI)OC(=O)CI",
    "TGI": "2.84 µM"
  },
  {
    "COMPOUND": "CN(C)c1ccc(/C=C(\\C#N)c2nc(-c3cc4ccccc4oc3=O)cs2)cc1",
    "TGI": "> 50 µM"
  },
  {
    "COMPOUND": "O=C(/C=C/c1ccccc1F)c1ccc([N+](=O)[O-])cc1",
    "TGI": "39.8 µM"
  },
  {
    "COMPOUND": "O=C1Nc2ccccc2/C1=C/C(=O)c1ccc(N2CCCC2)cc1",
    "TGI": "> 100 µM"
  },
  {
    "COMPOUND": "S=c1ncc2n[nH]nc2[nH]1",
    "TGI": "> 100 µM"
  }
]

====

tested on: NCI-H226 lung; experiment: NCI tumour cell line growth inhibition, 48 h
TGI reference
REPORTED ENDPOINT: TGI

[
  {
    "COMPOUND": "O=C1Nc2ccc(Cl)cc2C(=O)N2CCC[C@@H]12",
    "TESTED SYSTEM": "NCI-H226 lung",
    "RESULT": "> 100 µM"
  },
  {
    "COMPOUND": "CCOC(=O)C1=C(C)N=C2SC=C(c3ccccc3)N2[C@H]1c1cn[nH]c1-c1ccc(Cl)cc1",
    "TESTED SYSTEM": "NCI-H226 lung",
    "RESULT": "46.1 µM"
  },
  {
    "COMPOUND": "CS(=O)(=O)Nc1ccc(Nc2c3ccccc3nc3cc([N+](=O)[O-])ccc23)cc1",
    "TESTED SYSTEM": "NCI-H226 lung",
    "RESULT": "6.95 µM"
  },
  {
    "COMPOUND": "OCc1cn(Cc2ccc(Cl)cc2)c2ccccc12",
    "TESTED SYSTEM": "NCI-H226 lung",
    "RESULT": "0.106 µM"
  },
  {
    "COMPOUND": "CN(C)c1ccc(/C=C2\\C[C@H]3[C@@H]4CCc5cc(OCCN6CCCC6)ccc5[C@H]4CC[C@]3(C)[C@H]2O)cc1",
    "TESTED SYSTEM": "NCI-H226 lung",
    "RESULT": "37.4 µM"
  },
  {
    "COMPOUND": "O=c1[nH]c2nc3ccccc3n2c(O)c1-c1ccccc1",
    "TESTED SYSTEM": "NCI-H226 lung",
    "RESULT": "> 100 µM"
  },
  {
    "COMPOUND": "CN(C)c1ccc(C2SCC(=O)N2c2nc3cc4sc(N5C(=O)CSC5c5ccc(N(C)C)cc5)nc4cc3s2)cc1 (configuration not stated)",
    "TESTED SYSTEM": "NCI-H226 lung",
    "RESULT": "73.1 µM"
  },
  {
    "COMPOUND": "NC(=O)c1ncn2c1CNC(=O)C2",
    "TESTED SYSTEM": "NCI-H226 lung",
    "RESULT": "> 100 µM"
  },
  {
    "COMPOUND": "Cc1cccc2c1CC1(Cc3ccccc3C1=O)C2=O (configuration not stated)",
    "TESTED SYSTEM": "NCI-H226 lung",
    "RESULT": "> 100 µM"
  },
  {
    "COMPOUND": "CN[C@H](C)[C@@H](OC)c1ccccc1",
    "TESTED SYSTEM": "NCI-H226 lung",
    "RESULT": "> 100 µM"
  },
  {
    "COMPOUND": "O=C1/C(=N\\n2c(-c3ccncc3)n[nH]c2=S)c2cc(Cl)ccc2N1CN1CCCCC1",
    "TESTED SYSTEM": "NCI-H226 lung",
    "RESULT": "> 100 µM"
  },
  {
    "COMPOUND": "COc1ccc(OC)c(C(=O)c2cccc(C(=O)c3cc(OC)ccc3OC)n2)c1",
    "TESTED SYSTEM": "NCI-H226 lung",
    "RESULT": "74.9 µM"
  },
  {
    "COMPOUND": "c1ccc2nc3c(cc2c1)Sc1cc2ccccc2[n+]2c1N3CC2",
    "TESTED SYSTEM": "NCI-H226 lung",
    "RESULT": "> 100 µM"
  },
  {
    "COMPOUND": "Clc1ccc(OCCSCCCCCCCCCCSCCOc2ccc(Cl)cc2)cc1",
    "TESTED SYSTEM": "NCI-H226 lung",
    "RESULT": "> 100 µM"
  },
  {
    "COMPOUND": "O=C(O)c1ccc(Cc2ccccc2C(=O)O)cc1",
    "TESTED SYSTEM": "NCI-H226 lung",
    "RESULT": "> 100 µM"
  },
  {
    "COMPOUND": "COc1ccc(-n2c(N)c(C#N)c(C#N)c2-c2cccc([N+](=O)[O-])c2)cc1",
    "TESTED SYSTEM": "NCI-H226 lung",
    "RESULT": "> 100 µM"
  },
  {
    "COMPOUND": "Cc1[nH]c(-c2ccccc2)c(O)c1C(=O)OC12CC3CC(CC(C3)C1)C2",
    "TESTED SYSTEM": "NCI-H226 lung",
    "RESULT": "27.1 µM"
  },
  {
    "COMPOUND": "CCOC(=O)c1nnsc1NC(=O)NN",
    "TESTED SYSTEM": "NCI-H226 lung",
    "RESULT": "> 100 µM"
  },
  {
    "COMPOUND": "S=c1ncc2n[nH]nc2[nH]1",
    "TESTED SYSTEM": "NCI-H226 lung",
    "RESULT": "> 100 µM"
  },
  {
    "COMPOUND": "CC12OC(CC(O)C1O)n1c3ccccc3c3c4c(c5c6ccccc6n2c5c31)C(=O)N(CCN1CCCC1)C4=O (configuration not stated)",
    "TESTED SYSTEM": "NCI-H226 lung",
    "RESULT": "11.4 µM"
  },
  {
    "COMPOUND": "O=[N+]([O-])C(=C1NCCN1)C(Cl)=C(Cl)Cl",
    "TESTED SYSTEM": "NCI-H226 lung",
    "RESULT": "> 100 µM"
  },
  {
    "COMPOUND": "S=c1sc2c(s1)SCc1cccc(n1)CSc1sc(=S)sc1SCc1cccc(n1)CS2",
    "TESTED SYSTEM": "NCI-H226 lung",
    "RESULT": "> 100 µM"
  }
]
